target: hERG potassium ion channel (Homo sapiens, UniProt Q12809); construct: expressed in transfected cells; host or cells: CHO (Chinese hamster ovary) cells stably expressing hERG; experiment: Effect on hERG potassium ion channel (manual patch-clamp, CHO cells); assay type: cell-based; settings: CHO cells stably expressing hERG, whole cell patch-clamp; read-out: IC50 for inhibitory effect on hERG potassium channel current
Sequence (Q12809 whole entry): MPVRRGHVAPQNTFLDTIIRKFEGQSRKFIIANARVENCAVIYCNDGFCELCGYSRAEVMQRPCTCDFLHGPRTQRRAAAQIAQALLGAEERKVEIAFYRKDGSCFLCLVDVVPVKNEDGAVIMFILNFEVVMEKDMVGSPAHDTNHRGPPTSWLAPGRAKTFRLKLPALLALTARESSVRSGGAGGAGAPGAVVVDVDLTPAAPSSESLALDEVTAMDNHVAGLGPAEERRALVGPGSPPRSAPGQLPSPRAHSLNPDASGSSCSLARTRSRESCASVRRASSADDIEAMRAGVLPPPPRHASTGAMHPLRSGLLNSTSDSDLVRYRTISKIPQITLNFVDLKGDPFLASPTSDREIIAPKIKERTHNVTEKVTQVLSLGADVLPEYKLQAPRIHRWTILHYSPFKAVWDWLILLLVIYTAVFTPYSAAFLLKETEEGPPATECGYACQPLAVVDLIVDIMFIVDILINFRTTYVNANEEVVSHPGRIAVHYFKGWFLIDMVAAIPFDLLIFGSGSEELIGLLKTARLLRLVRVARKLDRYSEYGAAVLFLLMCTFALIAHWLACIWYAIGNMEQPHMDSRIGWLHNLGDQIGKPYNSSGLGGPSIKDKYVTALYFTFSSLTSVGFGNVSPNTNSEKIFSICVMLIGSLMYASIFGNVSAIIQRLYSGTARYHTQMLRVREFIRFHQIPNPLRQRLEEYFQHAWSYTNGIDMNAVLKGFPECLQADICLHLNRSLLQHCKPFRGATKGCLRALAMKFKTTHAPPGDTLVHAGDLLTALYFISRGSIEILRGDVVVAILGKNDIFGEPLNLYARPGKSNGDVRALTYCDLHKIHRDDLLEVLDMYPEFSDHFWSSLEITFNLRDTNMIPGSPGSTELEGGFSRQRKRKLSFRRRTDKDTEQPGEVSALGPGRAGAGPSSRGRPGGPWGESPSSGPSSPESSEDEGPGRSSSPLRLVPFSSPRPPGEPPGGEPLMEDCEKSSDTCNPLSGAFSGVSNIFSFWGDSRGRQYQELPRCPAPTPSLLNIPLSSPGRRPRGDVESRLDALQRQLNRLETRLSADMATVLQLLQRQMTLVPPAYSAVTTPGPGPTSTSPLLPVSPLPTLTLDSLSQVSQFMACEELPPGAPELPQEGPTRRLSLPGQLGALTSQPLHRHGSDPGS
Where a name gives a salt, the structure may show the parent alone.

compound	IC50
Cn1nc(C2CCC(=O)NC2=O)c2cccc(C#CCO[C@H]3CCN(C[C@H]4CC[C@H](n5cc(NC(=O)c6cnn7ccc(N8CCO[C@@H](CO)C8)nc67)c(C(F)F)n5)CC4)C[C@H]3F)c21 (single isomer, unassigned) [Chiral isomer 1 of compound 24]	> 40 µM
Cn1nc(C2CCC(=O)NC2=O)c2cccc(C#CCO[C@H]3CCN(C[C@H]4CC[C@H](n5cc(NC(=O)c6cnn7ccc(N8C[C@H]9C[C@@H]8CO9)nc67)c(C(F)F)n5)CC4)C[C@@H]3F)c21 (stereo partly shown)	> 30 µM
Cn1nc(C2CCC(=O)NC2=O)c2cccc(C#CCO[C@H]3CCN(C[C@H]4CC[C@H](n5cc(NC(=O)c6cnn7ccc(N8C[C@H]9C[C@@H]8CO9)nc67)c(C(F)F)n5)CC4)C[C@H]3F)c21 (stereo partly shown)	> 30 µM
Cn1nc(C2CCC(=O)NC2=O)c2cccc(C#CCO[C@@H]3CCN(C[C@H]4CC[C@H](n5cc(NC(=O)c6cnn7ccc(N8CCO[C@@H](CO)C8)nc67)c(C(F)F)n5)CC4)C[C@@H]3F)c21 (single isomer, unassigned) [Trifluoroacetate salt of chiral isomer 2 of compound 19]	> 40 µM
